System: Kappa-type opioid receptor (Homo sapiens, UniProt P41145)
Sequence (P41145 whole entry): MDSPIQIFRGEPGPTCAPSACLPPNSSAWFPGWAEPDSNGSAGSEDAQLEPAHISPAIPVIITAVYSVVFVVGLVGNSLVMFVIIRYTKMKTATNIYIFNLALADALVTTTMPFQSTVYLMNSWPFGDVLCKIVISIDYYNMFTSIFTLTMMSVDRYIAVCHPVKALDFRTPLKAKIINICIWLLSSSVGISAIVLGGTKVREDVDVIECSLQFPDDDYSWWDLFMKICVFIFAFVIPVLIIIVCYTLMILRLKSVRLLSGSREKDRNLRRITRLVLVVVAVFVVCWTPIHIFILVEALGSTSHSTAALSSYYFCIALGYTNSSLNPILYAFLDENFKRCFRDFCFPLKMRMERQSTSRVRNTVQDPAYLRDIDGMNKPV
Assay Procedure: Agonist activity at kappa opioid receptor
Assay Endpoint: pEC50
FYI, pEC50 means -log10 of a concentration in mol per litre.

Ask: Record request: pEC50 value, item O=C1COc2cc(Cl)c(Cl)cc2N1CC(=O)N1CCCC(c2ccccc2)C1CN1CCOCC1 (racemic)
Result: 5.10

Ask: Proceed to Cc1cc2c(cc1C)N(CC(=O)N1CCCC(c3ccccc3)C1CN1CCCC1)C(=O)CO2 (racemic)
Result: 5.30

Ask: Proceed to CN(CC(=O)N1CCCC(c2ccccc2)C1CN1CCCC1)c1ccc(Cl)c(Cl)c1 (racemic)
Result: 5.49

Ask: Proceed to O=C(Cn1c(=O)sc2ccc(Cl)cc21)N1CCCC(c2ccccc2)C1CN1CCCC1 (racemic)
Result: 5.89

Ask: Proceed to O=C1COc2cc(Cl)c(Cl)cc2N1CC(=O)N1CCCC(c2ccccc2)C1CN1CCCC1 (racemic)
Result: 6.30

Ask: Proceed to O=C(Cn1c(=O)cnc2cc(Cl)c(Cl)cc21)N1CCCC(c2ccccc2)C1CN1CCCC1 (racemic)
Result: 5.49

Ask: Proceed to CN(CC(=O)N1CCCC(c2ccccc2)C1CN1CCOCC1)c1ccc(Cl)c(Cl)c1 (racemic)
Result: 6.00

Ask: Proceed to COCCN(CC(=O)N1CCCC(c2ccccc2)C1CN1CCOCC1)c1ccc(Cl)c(Cl)c1 (racemic)
Result: 5.00

====

Assay Procedure: Binding affinity at batrachotoxinin sensitive Sodium channel in rat brain
Type: tissue-based
Class definitions on Ki: bin 1 (below 0.7 µM), bin 2 (0.7 µM to below 2 µM), bin 3 (2 µM or more)

Ask: Category of N#CCN(CC(=O)N1CCCC(c2ccccc2)C1CN1CCOCC1)c1ccc(Cl)c(Cl)c1 (racemic) :
Result: bin 3

Ask: Proceed to O=C(Cn1c(=O)oc2ccc(Cl)cc21)N1CCCC(c2ccccc2)C1CN1CCOCC1 (racemic)
Result: bin 2

Ask: Proceed to O=C(Cn1c(=O)oc2ccc(Cl)cc21)N1CCCC(c2ccccc2)C1CN1CCCC1 (racemic)
Result: bin 1

Ask: Proceed to CN(CC(=O)N1CCCC(c2ccccc2)C1CN1CCOCC1)c1ccc(Cl)c(Cl)c1 (racemic)
Result: bin 2

Ask: Proceed to O=C1COc2cc(Cl)c(Cl)cc2N1CC(=O)N1CCCC(c2ccccc2)C1CN1CCOCC1 (racemic)
Result: bin 2

Ask: Proceed to O=C(Cn1c(=O)sc2ccc(Cl)cc21)N1CCCC(c2ccccc2)C1CN1CCCC1 (racemic)
Result: bin 1

Ask: Proceed to O=C(Cn1c(=O)cnc2cc(Cl)c(Cl)cc21)N1CCCC(c2ccccc2)C1CN1CCOCC1 (racemic)
Result: bin 3

Ask: Proceed to CN(CC(=O)N1CCCC(c2ccccc2)C1CN1CCCC1)c1ccc(Cl)c(Cl)c1 (racemic)
Result: bin 3

Ask: Proceed to O=C(Cn1c(=O)sc2ccc(Cl)cc21)N1CCCC(c2ccccc2)C1CN1CCOCC1 (racemic)
Result: bin 3

Ask: Proceed to COCCN(CC(=O)N1CCCC(c2ccccc2)C1CN1CCCC1)c1ccc(Cl)c(Cl)c1 (stereo not drawn)
Result: bin 2

Ask: Proceed to COCCN(CC(=O)N1CCCC(c2ccccc2)C1CN1CCOCC1)c1ccc(Cl)c(Cl)c1 (racemic)
Result: bin 3

Ask: Proceed to Cc1cc2c(cc1C)N(CC(=O)N1CCCC(c3ccccc3)C1CN1CCCC1)C(=O)CO2 (racemic)
Result: bin 1
